- Target Desc: EGFR del19 (Homo sapiens (Human), UniProt P00533, DEL746-750)
- Sequence (P00533 other isoform, or with tags, fused parts or gaps del 1-668/del 746-750 limits assumed): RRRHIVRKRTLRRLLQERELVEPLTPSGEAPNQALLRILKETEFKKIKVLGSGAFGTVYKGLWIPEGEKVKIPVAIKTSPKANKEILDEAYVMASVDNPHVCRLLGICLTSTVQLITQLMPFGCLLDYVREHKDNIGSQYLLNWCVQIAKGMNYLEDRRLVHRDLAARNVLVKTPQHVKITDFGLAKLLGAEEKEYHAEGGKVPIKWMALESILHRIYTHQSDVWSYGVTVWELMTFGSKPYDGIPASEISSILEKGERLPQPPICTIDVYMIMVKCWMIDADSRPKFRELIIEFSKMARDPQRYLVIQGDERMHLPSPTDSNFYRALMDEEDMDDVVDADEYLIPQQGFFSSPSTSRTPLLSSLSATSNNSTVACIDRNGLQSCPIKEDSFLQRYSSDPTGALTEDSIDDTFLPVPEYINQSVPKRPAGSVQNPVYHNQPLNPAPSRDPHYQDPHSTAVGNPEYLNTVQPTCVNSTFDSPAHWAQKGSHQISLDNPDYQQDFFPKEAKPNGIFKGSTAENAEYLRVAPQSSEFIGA
- Procedure Details: HTRF inhibitory activity against EGFR mutant enzyme (EGFR del19)
- Measurement Context: recombinant enzyme, 37° C. for 2 hours
pIC50: −log10 of the molar value.
Consider the following compounds and their measured pIC50 readings.
Measurement Kind: pIC50

C=CC(=O)Nc1cc(Nc2ncc(Cl)c(Nc3ccccc3NC(C)=O)n2)c(OC)cc1N(C)CCN(C)C; 9.00
CC#CC(=O)Nc1cc(Nc2ncc(Cl)c(Nc3cccc4c3N(S(C)(=O)=O)CC4)n2)c(OC)cc1N(C)CCN(C)C; 9.00

---

- Target Desc: EGFR A763_Y764insFHEA (Homo sapiens (Human), UniProt P00533, INS763FHEA)
- Sequence (P00533 other isoform, or with tags, fused parts or gaps del 1-694/ins FHEA behind 763 limits assumed): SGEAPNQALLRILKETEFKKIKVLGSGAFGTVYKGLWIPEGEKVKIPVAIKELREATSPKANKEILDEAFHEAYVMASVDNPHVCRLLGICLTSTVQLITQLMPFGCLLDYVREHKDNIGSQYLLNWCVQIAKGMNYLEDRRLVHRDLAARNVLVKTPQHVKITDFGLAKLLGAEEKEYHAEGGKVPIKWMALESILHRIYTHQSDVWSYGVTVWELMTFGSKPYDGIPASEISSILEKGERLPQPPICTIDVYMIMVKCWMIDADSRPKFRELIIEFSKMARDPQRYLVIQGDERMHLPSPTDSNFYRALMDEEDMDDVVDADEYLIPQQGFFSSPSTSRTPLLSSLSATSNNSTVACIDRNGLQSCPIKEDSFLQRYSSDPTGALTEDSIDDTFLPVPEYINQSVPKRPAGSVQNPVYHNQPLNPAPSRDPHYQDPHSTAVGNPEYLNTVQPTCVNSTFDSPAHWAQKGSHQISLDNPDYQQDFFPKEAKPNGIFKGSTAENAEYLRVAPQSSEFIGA
- Procedure Details: HTRF inhibitory activity against EGFR mutant enzyme (EGFR A763_Y764insFHEA)
- Measurement Context: recombinant enzyme, 37° C. for 2 hours
pIC50: −log10 of the molar value.
Measurement Kind: pIC50

C=CC(=O)Nc1cc(Nc2ncc(C#N)c(Nc3cccc4c3N(C(C)=O)CC4)n2)c(OC)cc1N(C)CCN(C)C; 8.52
C=CC(=O)Nc1cc(Nc2nccc(Nc3cccc4c3N(C(C)=O)CC4)n2)c(OC)cc1N(C)CCN(C)C; 8.05
C=CC(=O)Nc1cc(Nc2ncc(Cl)c(Nc3cccc4c3N(S(C)(=O)=O)CCC4)n2)c(OC)cc1N(C)CCNC; 8.15
C=CC(=O)Nc1cc(Nc2ncc(Cl)c(Nc3cccc4c3N(C(C)=O)CCC4)n2)c(OC)cc1N(C)CCN(C)C; 7.96
